conditions: buffer; pH 7.4; 200.0 µM
The entries below are paired with their reported solubility kinetic.
ENDPOINT LABEL: solubility kinetic (µg/mL)

INSERT INTO results (compound, unit_abbrev, bound_type, measured_number) VALUES
  ('CC1CCCCC1NC(=O)CN1C(=O)c2ccccc2S1(=O)=O (centres undefined)', 'µg/mL', '=', 25.7),
  ('O=C(COc1ccc(C(=O)c2ccccc2)cc1)Nc1cccnc1', 'µg/mL', '>', 49.9),
  ('CCOc1ccc(S(=O)(=O)NCc2cccnc2)cc1', 'µg/mL', '>', 43.9),
  ('Cn1c(Cl)c(/C=N/OC(=O)C(C)(C)C)c2ccccc21', 'µg/mL', '=', 0.7),
  ('COc1ccc(NC(=S)N(CCN(C)C)Cc2cccs2)cc1', 'µg/mL', '>', 52.4),
  ('COc1ccc(CNC(=O)c2ccc[nH]2)cc1Cl', 'µg/mL', '>', 39.7),
  ('Nc1ccc(Oc2ccc3c(c2)C(=O)NC3=O)cc1', 'µg/mL', '=', 35.5),
  ('CC(=O)c1ccc(NC(=O)CN2CCCCCC2)cc1', 'µg/mL', '>', 41.2),
  ('O=C(Nc1ccc(F)cc1F)c1cc(Cl)sc1Cl', 'µg/mL', '<', 0.7),
  ('O=C(NCc1ccco1)c1ccc(Cl)cc1[N+](=O)[O-]', 'µg/mL', '>', 42.1),
  ('COc1ccccc1N1CCN(C(=O)c2cc(C(C)(C)C)oc2C)CC1', 'µg/mL', '=', 41.8),
  ('COCCNC(=O)/C(C#N)=C/c1ccc(C(=O)O)cc1', 'µg/mL', '>', 41.1),
  ('Cc1ccnc(NC(=O)CNC(=O)c2cccs2)c1', 'µg/mL', '>', 41.3),
  ('COCc1cc(C)nc(NC2CC(C)(C)NC(C)(C)C2)c1C#N', 'µg/mL', '>', 47.5),
  ('O=C(Nc1ccccc1)c1cn2ccccc2n1', 'µg/mL', '=', 14.7),
  ('CC1CC(C(=O)Nc2ccccc2)C(=O)O1 (centres undefined)', 'µg/mL', '=', 27.2),
  ('CCC(CC)C(=O)Nc1ccc(S(=O)(=O)Nc2nccs2)cc1', 'µg/mL', '>', 53),
  ('CC(C)N1CCN(Cc2nc3c(s2)CCCC3)CC1CCO (centres undefined)', 'µg/mL', '=', 41.4),
  ('O=C(Cc1cccs1)Nc1ccc(F)cc1F', 'µg/mL', '=', 30),
  ('CN(CC(=O)Nc1cccc(F)c1)C(=O)c1ccncc1', 'µg/mL', '>', 43.1),
  ('Cc1nonc1OC(C)CNCCNc1ccc([N+](=O)[O-])cc1.Cl (centres undefined)', 'µg/mL', '>', 53.7),
  ('O=S(=O)(c1ccc2[nH]ccc2c1)N1CCCCCC1', 'µg/mL', '>', 41.8),
  ('NS(=O)(=O)c1cc(C(=O)N2CCNC(=O)C2)ccc1Cl', 'µg/mL', '>', 47.7),
  ('Cc1cc2c(cn1)C(CCC#N)(CCC#N)c1ccccc1-2', 'µg/mL', '>', 43.1),
  ('CCCCC(=O)NCc1ccccc1Cl', 'µg/mL', '>', 33.9),
  ('CCCCCN1CC(O)=C(c2nc3ccccc3[nH]2)C1=N', 'µg/mL', '=', 1.1),
  ('CN(C)S(=O)(=O)c1cccc(NC(=O)c2cc(=O)[nH]c(=O)[nH]2)c1', 'µg/mL', '>', 50.8),
  ('CC(=O)N/C(=C\c1ccc(Cl)cc1)C(=O)O', 'µg/mL', '=', 34.7),
  ('COc1ccccc1C1CCN(C(=O)C2CCCCC2)CC1', 'µg/mL', '=', 38.6),
  ('Cc1ccc(C)c(S(=O)(=O)N2CCN(C(=O)[C@H](Cc3ccccc3)NC(=O)c3ccco3)CC2)c1', 'µg/mL', '=', 18.2),
  ('NC(=O)COC(=O)c1cc(=O)[nH]c2ccccc12', 'µg/mL', '>', 36.9),
  ('O=C(CSCc1ccccc1F)NCc1ccccc1', 'µg/mL', '>', 43.4),
  ('Cc1cc(C)cc(NC(=O)N2CCc3ccccc3C2)c1', 'µg/mL', '=', 1.3),
  ('CCOc1ccc2nc(Cl)sc2c1', 'µg/mL', '<', 0.5),
  ('O=S(=O)(NCCCCNS(=O)(=O)c1ccc(F)cc1)c1ccc(F)cc1', 'µg/mL', '=', 0.7),
  ('Nc1ncccc1C(=O)OCC(=O)NC1CCCCCC1', 'µg/mL', '=', 38),
  ('OCC1(Cc2ccccc2F)CCCN(CCc2ccccc2)C1 (centres undefined)', 'µg/mL', '=', 40.7),
  ('Nc1ncccc1OCc1ccc(Cl)c(Cl)c1', 'µg/mL', '=', 29.7),
  ('NS(=O)(=O)c1ccc(CCNC(=O)COC(=O)C2COc3ccccc3O2)cc1 (centres undefined)', 'µg/mL', '>', 63.1),
  ('COc1ccc(CCNC(=O)c2ccccc2C(=O)NCCc2ccc(OC)cc2)cc1', 'µg/mL', '=', 2.2),
  ('O=C(N/C(=C\c1ccco1)C(=O)N1CCCCC1)c1ccc([N+](=O)[O-])cc1', 'µg/mL', '=', 3.6),
  ('COc1cccc2[nH]c3c(=O)n(CCCN4CCOCC4)cnc3c12', 'µg/mL', '>', 51.4),
  ('CN(Cc1nc2ccccc2[nH]1)Cc1nc(CC2CC2)no1', 'µg/mL', '>', 44.6),
  ('Cc1cc(C)cc(N(C(C)C(=O)N2CCCC2)S(C)(=O)=O)c1 (centres undefined)', 'µg/mL', '>', 48.7),
  ('CCOC(=O)N1CCN(c2ccnc3cc(Cl)ccc23)CC1', 'µg/mL', '=', 43.9),
  ('COc1ccc(-c2cc(C(=O)OCC(=O)N3CCOCC3)c3ccccc3n2)cc1', 'µg/mL', '=', 26.3),
  ('CCCC[n+]1c(C)sc2cc(OC)ccc21.[I-]', 'µg/mL', '=', 31.9),
  ('Cc1ccc(C2N=C(N)Nc3nc4ccccc4n32)cc1 (centres undefined)', 'µg/mL', '=', 35),
  ('CC(=O)c1ccc(S(=O)(=O)N2CCN(C)CC2)cc1', 'µg/mL', '>', 42.4);
